test_target: CDK6/cyclin D1 (Homo sapiens)
method_summary: Biochemical kinase inhibition test, CDK6/cyclin D1 (similar method)
test_parameters: three-fold serial dilution from 10 μM; 10 μM ATP; read-out: CDK6/D1 (nM), enzyme inhibitory activity IC50
IC50 values for the compounds below.

See these solved cases before continuing.
• CC1CN(c2ccc(Nc3ncc4ccc5cnn(C(C)C)c5c4n3)nc2)CCO1 (centres unmarked) [Compound I-16] = 5 to 10 nM
• Cc1cc(Nc2ncc3ccc4cnn(C5CCCC5)c4c3n2)ncc1N1CCOCC1 [Compound I-44] = 10 to 20 nM

Record CN1CCN(c2ccc(Nc3ncc4ccc5cnn(C6CCCC6)c5c4n3)nc2)CC1 [Compound I-38] : what is its IC50 with CDK6/cyclin D1 (Homo sapiens)?
5 to 10 nM

For Cc1nc(Nc2ncc3ccc4cnn(C5CCCC5)c4c3n2)ccc1N1CCNCC1 [Compound I-37] then?
< 1 nM

For COc1cc(OC)cc(-c2cc3cnc(Nc4ccc(N5CCNCC5)cn4)nc3c3c2cnn3C(C)C)c1.Cl [Compound I-80] then?
1 to 5 nM

For CCN1CCN(c2cnc(Nc3ncc4ccc5cnn(C(C)C)c5c4n3)cc2C)CC1 [Compound I-8] then?
10 to 20 nM

For CC(C)n1ncc2c(Br)cc3cnc(Nc4cc(F)c(N5CCNCC5)cn4)nc3c21.Cl [Compound I-62] then?
10 to 20 nM

====

test_target: recombinant CDK4/Cyclin D1 (Homo sapiens)
Construct: purchased Life Technologies PV4204
Sequence (P11802 whole entry): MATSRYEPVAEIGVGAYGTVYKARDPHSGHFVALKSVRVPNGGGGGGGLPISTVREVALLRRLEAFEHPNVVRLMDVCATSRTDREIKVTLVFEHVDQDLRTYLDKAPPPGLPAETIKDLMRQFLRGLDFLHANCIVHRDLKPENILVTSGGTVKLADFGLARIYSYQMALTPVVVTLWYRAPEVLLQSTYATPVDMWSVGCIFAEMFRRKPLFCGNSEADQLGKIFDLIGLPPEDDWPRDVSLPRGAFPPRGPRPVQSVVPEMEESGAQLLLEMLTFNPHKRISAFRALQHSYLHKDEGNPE
Sequence (P24385 whole entry partner): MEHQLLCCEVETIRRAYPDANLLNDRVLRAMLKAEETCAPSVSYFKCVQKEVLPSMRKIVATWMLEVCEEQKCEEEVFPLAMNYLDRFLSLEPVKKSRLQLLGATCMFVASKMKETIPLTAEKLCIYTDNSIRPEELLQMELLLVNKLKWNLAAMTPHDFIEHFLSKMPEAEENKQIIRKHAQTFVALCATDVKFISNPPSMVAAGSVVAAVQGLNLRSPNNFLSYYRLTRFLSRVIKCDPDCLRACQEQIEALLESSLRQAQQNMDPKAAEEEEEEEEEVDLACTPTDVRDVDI
method_summary: Biochemical kinase inhibition test, CDK4/Cyclin D1 (32P-ATP, retinoblastoma protein substrate)
test_parameters: three-fold serial dilution from 10 μM; 10 μM ATP; read-out: CDK4/D1 (nM), enzyme inhibitory activity IC50
measured_metric: IC50

See these solved cases before continuing.
* CC(C)n1ncc2ccc3cnc(Nc4ccc(C(=O)N5CCC(N6CCN(C)CC6)CC5)cn4)nc3c21 [Compound I-31] | 50 to 100 nM
* Cc1nc(Nc2ncc3ccc4cnn(C(C)C)c4c3n2)ccc1N1CCN(C)CC1 [Compound I-6] | 1 to 5 nM
* CC(C)n1ncc2c(Br)cc3cnc(Nc4cc(F)c(N5CCNCC5)cn4)nc3c21.Cl [Compound I-62] | 20 to 50 nM
* CC(=O)c1cc2cnc(Nc3ccc(N4CCN(C)CC4)cn3)nc2c2c1cnn2C(C)C [Compound I-77] | 5 to 10 nM
* CC1CN(c2ccc(Nc3ncc4ccc5cnn(C6CC6)c5c4n3)nc2)CCO1 (centres unmarked) [Compound I-60] | 10 to 20 nM

Could you tell me which IC50 is on file for CCN1CCN(c2ccc(Nc3ncc4ccc5cnn(C6CC6)c5c4n3)nc2)CC1 [Compound I-56] ?
10 to 20 nM

For CCN1CCN(c2ccc(Nc3ncc4cc(C)c5cnn(C(C)C)c5c4n3)nc2)CC1 [Compound I-69] then?
10 to 20 nM

For CC(C)n1ncc2c(C#N)cc3cnc(Nc4ccc(N5CCNCC5)cn4)nc3c21.Cl [Compound I-71] then?
10 to 20 nM

====

test_target: CDK6/cyclin D1 (Homo sapiens, UniProt Q00534)
Sequence (Q00534 whole entry, species assumed): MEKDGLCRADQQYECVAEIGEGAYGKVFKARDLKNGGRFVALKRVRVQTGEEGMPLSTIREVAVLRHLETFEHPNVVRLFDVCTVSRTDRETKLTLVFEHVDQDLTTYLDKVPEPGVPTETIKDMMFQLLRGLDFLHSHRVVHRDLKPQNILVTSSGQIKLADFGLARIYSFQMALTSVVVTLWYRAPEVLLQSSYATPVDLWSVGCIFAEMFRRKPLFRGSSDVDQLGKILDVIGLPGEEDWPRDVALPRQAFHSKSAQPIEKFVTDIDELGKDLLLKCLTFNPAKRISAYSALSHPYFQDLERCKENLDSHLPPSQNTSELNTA
Sequence (P24385 whole entry partner, species assumed): as the sequence (P24385 whole entry partner) above
method_summary: Biochemical kinase inhibition test, CDK6/cyclin D1 (similar method)
test_parameters: three-fold serial dilution from 10 μM; 10 μM ATP; read-out: CDK6/D1 (nM), enzyme inhibitory activity IC50
measured_metric: IC50

See these solved cases before continuing.
* CC(C)n1ncc2ccc3cnc(Nc4cc(F)c(N5CCNCC5)cn4)nc3c21 | 10 to 20 nM
* CC(C)n1ncc2c(Br)cc3cnc(Nc4ccc(N5CCNCC5)cn4)nc3c21 | 10 to 20 nM
* CC1CN(c2ccc(Nc3ncc4ccc5cnn(C6CC6)c5c4n3)nc2)CCO1 (centres unmarked) | 10 to 20 nM
* Cc1cc2cnc(Nc3ccc(N4CCOCC4)cn3)nc2c2c1cnn2C(C)C | 10 to 20 nM

Could you tell me which IC50 is on file for "CCn1ncc2ccc3cnc(Nc4ccc(N5CCNCC5)cn4)nc3c21.Cl" ?
5 to 10 nM

For "CCN1CCN(c2cnc(Nc3ncc4ccc5cnn(C6CC6)c5c4n3)cc2C)CC1" then?
10 to 20 nM

For "CC(C)n1ncc2ccc3cnc(Nc4ccc(N5CCC(N(C)C)CC5)cn4)nc3c21" then?
20 to 50 nM

For "Cc1nc(Nc2ncc3ccc4cnn(C(C)C)c4c3n2)ccc1N1CCS(=O)(=O)CC1" then?
10 to 20 nM
